All figures here come from a melting point compilation (Tetko et al.).

melting point for assorted molecules

Illustrative cases are given below, each with its answer.
[
  {
    "molecule": "CNC(C(=O)O)c1ccc(F)cc1 (stereo unspecified)",
    "attribute measured": "melting point",
    "value": "276 to 278 °C"
  },
  {
    "molecule": "COc1ccc(-c2nn(-c3ccccc3)cc2C=O)cc1",
    "attribute measured": "melting point",
    "value": "135 to 137 °C"
  },
  {
    "molecule": "NNC(=O)NCCc1cccs1",
    "attribute measured": "melting point",
    "value": "90 to 92 °C"
  },
  {
    "molecule": "CCc1cccc(CC)c1-n1ccnc1",
    "attribute measured": "melting point",
    "value": "74 to 76 °C"
  },
  {
    "molecule": "Nc1[nH]ncc1-c1ccccc1Br",
    "attribute measured": "melting point",
    "value": "129 to 131 °C"
  }
]

What does the data say about its melting point? Entry: O=C1c2ccccc2C(=O)N1CC1(CO)CCCC1
83 to 85 °C

What does the data say about its melting point? Entry: O=C(O)c1cc2ccccc2cc1NS(=O)(=O)c1ccc(F)cc1
203 to 205 °C

###

melting point for assorted compounds

[
  {
    "smiles string": "CCc1ccc(C(=O)O)cc1S(=O)(=O)N1CCOCC1",
    "value": "159 to 161 °C"
  }
]

What does the data say about its melting point? Entry: Nn1c(S)nnc1-c1ccccc1Br
188 to 190 °C

What does the data say about its melting point? Entry: Nc1nc2c(cc1C(=O)O)CCCC2
285 to 287 °C

###

melting point for assorted molecules

Illustrative cases are given below, each with its answer.
[
  {
    "molecule": "C#CCn1nc(C)c(C)c1C",
    "value": "74 to 76 °C"
  },
  {
    "molecule": "Cc1cc(C)cc(-n2[nH]c(-c3ccco3)cc2=N)c1",
    "value": "125 to 127 °C"
  },
  {
    "molecule": "O=C1CCC(Cc2ccc(O)cc2)O1 (stereo not drawn)",
    "value": "104 to 106 °C"
  },
  {
    "molecule": "COCCNC(=O)Cc1ccc(N)cc1",
    "value": "50 to 52 °C"
  },
  {
    "molecule": "CC(C)(C)OC(=O)N1CCN(C(=O)CN)CC1",
    "value": "95 to 97 °C"
  },
  {
    "molecule": "O=C1NC(=O)C2(CCCc3sccc32)N1 (stereo not drawn)",
    "value": "267 to 269 °C"
  }
]

What does the data say about its melting point? Entry: CCn1nnnc1S
18 to 20 °C

###

melting point for assorted molecules

Illustrative cases are given below, each with its answer.
[
  {
    "molecule": "OCC1CNc2ccccc2C1 (centres undefined)",
    "value": "79 to 81 °C"
  },
  {
    "molecule": "O=C(Nc1cccc(I)c1)C(F)(F)F",
    "value": "129 to 131 °C"
  },
  {
    "molecule": "Nc1ncc(Br)nc1C(=O)O",
    "value": "172 to 174 °C"
  }
]

What does the data say about its melting point? Entry: N#Cc1ccc(I)cc1C#N
140 to 142 °C

What does the data say about its melting point? Entry: CCNC(=O)c1ccccc1N
93 to 95 °C

What does the data say about its melting point? Entry: CC1=NN(c2cccc(Br)c2)C(=O)C1CC(=O)O (centres undefined)
201 to 203 °C

What does the data say about its melting point? Entry: NC(=S)c1ccn[nH]1
183 to 185 °C

What does the data say about its melting point? Entry: Cc1cc(C)c2c(=O)[nH][nH]c2n1
249 to 251 °C

What does the data say about its melting point? Entry: Cc1nn(C)c(C)c1OCC(=O)O
172 to 174 °C

What does the data say about its melting point? Entry: Clc1cc(Cl)nc(C2CC2)n1
39 to 41 °C

What does the data say about its melting point? Entry: Nc1ccc(S(=O)(=O)Nc2ccc([N+](=O)[O-])cc2)cc1
162 to 164 °C

What does the data say about its melting point? Entry: O=C(O)C1CCN(S(=O)(=O)N2CCCCC2)CC1
131 to 133 °C

###

melting point for assorted compounds

Illustrative cases are given below, each with its answer.
[
  {
    "smiles string": "Cn1c(CO)nc2ccccc21",
    "melting point": "144 to 146 °C"
  },
  {
    "smiles string": "Clc1cc2c(Cl)ncnc2[nH]1",
    "melting point": "239 to 241 °C"
  }
]

What does the data say about its melting point? Entry: O=C(CC1(C(=O)O)CCCCC1)NC1CC1
151 to 153 °C

###

melting point for assorted compounds

Illustrative cases are given below, each with its answer.
[
  {
    "compound": "O=C(O)C1Cc2ccccc2CN1S(=O)(=O)c1ccccc1 (centres undefined)",
    "value": "138 to 140 °C"
  },
  {
    "compound": "COc1cccc(CO)c1OC(F)F",
    "value": "77 to 79 °C"
  },
  {
    "compound": "O=C(Nc1ccc(C(=O)O)c(O)c1)c1cc(F)cc(F)c1",
    "value": "269 to 271 °C"
  },
  {
    "compound": "Nc1cc(Cl)cc(Br)c1O",
    "value": "83 to 85 °C"
  },
  {
    "compound": "NS(=O)(=O)c1cc([N+](=O)[O-])ccc1Cl",
    "value": "155 to 157 °C"
  }
]

What does the data say about its melting point? Entry: Oc1ccc2nccnc2c1
225 to 227 °C

What does the data say about its melting point? Entry: NS(=O)(=O)c1ccc(Cl)nc1
154 to 156 °C

What does the data say about its melting point? Entry: Fc1ccc2c(Cl)ncnc2c1
90 to 92 °C

What does the data say about its melting point? Entry: Oc1ccc(-c2cscn2)cc1
146 to 148 °C

###

melting point for assorted molecules

Illustrative cases are given below, each with its answer.
[
  {
    "molecule": "Cc1[nH]c(=O)c(C#N)c(C)c1CCC(=O)O",
    "melting point": "253 to 257 °C"
  },
  {
    "molecule": "CCOC(=O)Nc1snc(C)c1C(C)=O",
    "melting point": "80 to 82 °C"
  },
  {
    "molecule": "O=C(O)c1ccc(NC(=O)c2ccccc2I)cc1",
    "melting point": "275 to 277 °C"
  },
  {
    "molecule": "Cc1ccc(Cl)cc1C(N)=O",
    "melting point": "150 to 152 °C"
  },
  {
    "molecule": "Cc1nc(C(C)(C)C)nc(Cl)c1C",
    "melting point": "36 to 38 °C"
  }
]

Turning to the following molecule.
What does the data say about its melting point? Entry: Nc1cccc(-c2ccc3c(c2)CCO3)n1
123 to 125 °C

###

attribute measured: melting point

Illustrative cases are given below, each with its answer.
[
  {
    "molecule": "CCOC(=O)C(O)c1ncc(Cl)n1C (stereo not given)",
    "melting point": "85 to 87 °C"
  },
  {
    "molecule": "CC(C)(C)CNC(N)=O",
    "melting point": "148 to 150 °C"
  },
  {
    "molecule": "CSc1nc2nc(C)c(CC(=O)O)c(C)n2n1",
    "melting point": "275 to 277 °C"
  },
  {
    "molecule": "O=C(CCl)NCc1ccccc1S(=O)(=O)N1CCOCC1",
    "melting point": "123 to 125 °C"
  },
  {
    "molecule": "O=C(O)CCn1ccc2cc(Cl)ccc21",
    "melting point": "59 to 61 °C"
  }
]

What does the data say about its melting point? Entry: Cc1ccc(S(=O)(=O)N(CCC(=O)O)c2ccccc2)cc1
145 to 147 °C

What does the data say about its melting point? Entry: COc1ccc(CN2CCCC2)cc1N
46 to 48 °C

What does the data say about its melting point? Entry: Nc1nc(=O)cn[nH]1
249 to 251 °C

###

melting point for assorted compounds

[
  {
    "compound": "NS(=O)(=O)C1CCCC1",
    "attribute measured": "melting point",
    "value": "76 to 78 °C"
  },
  {
    "compound": "O=C(O)c1ccc(=O)n(-c2ccc(F)cc2)c1",
    "attribute measured": "melting point",
    "value": "299 to 301 °C"
  },
  {
    "compound": "NNC(=O)NCc1cccc(C(F)(F)F)c1",
    "attribute measured": "melting point",
    "value": "86 to 88 °C"
  },
  {
    "compound": "Cc1nc(N)sc1Cc1cccc(F)c1",
    "attribute measured": "melting point",
    "value": "82 to 84 °C"
  },
  {
    "compound": "O=C(O)CCNS(=O)(=O)c1ccccc1C(F)(F)F",
    "attribute measured": "melting point",
    "value": "142 to 144 °C"
  },
  {
    "compound": "N#CCc1nc2cc(Cl)ccc2c(=O)[nH]1",
    "attribute measured": "melting point",
    "value": "282 to 284 °C"
  }
]

What does the data say about its melting point? Entry: Nc1cccc(CN2CCN(c3ccccn3)CC2)c1
168 to 170 °C

What does the data say about its melting point? Entry: CCC(=O)Nc1ccc(O)c(C(=O)O)c1
217 to 219 °C

What does the data say about its melting point? Entry: O=C(O)c1nc(-c2cccs2)n(-c2ccccc2)n1
199 to 201 °C

What does the data say about its melting point? Entry: CNC(=O)COc1ccc(CC(=O)O)cc1
143 to 145 °C

What does the data say about its melting point? Entry: CCC(C)(N)C(=O)O (centres undefined)
276 to 278 °C

What does the data say about its melting point? Entry: Cc1nnc(CCl)o1
32 to 40 °C

What does the data say about its melting point? Entry: O=C(O)c1ccccc1NS(=O)(=O)C(F)(F)F
164 to 166 °C
